study system: C5AR1 (Homo sapiens, UniProt P21730)
Sequence (P21730 whole entry): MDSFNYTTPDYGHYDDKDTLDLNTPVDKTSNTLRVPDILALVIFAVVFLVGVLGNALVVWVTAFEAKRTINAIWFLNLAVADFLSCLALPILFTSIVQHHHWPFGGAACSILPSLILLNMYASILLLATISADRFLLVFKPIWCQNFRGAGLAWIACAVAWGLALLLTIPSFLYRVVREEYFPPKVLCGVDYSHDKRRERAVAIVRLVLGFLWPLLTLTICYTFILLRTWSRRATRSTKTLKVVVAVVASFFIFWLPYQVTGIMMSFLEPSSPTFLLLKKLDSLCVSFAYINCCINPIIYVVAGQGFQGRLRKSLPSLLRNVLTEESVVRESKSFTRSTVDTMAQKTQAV
experiment summary: hC5a DISCO IC50 assay (PathHunter beta-arrestin, antagonist mode)
conditions used: CHO-K1 C5AR1 beta-arrestin cell line; antagonist vs 1-10 nM C5a agonist; geometric mean values; read-out: C5aR IC50
readout name: IC50 (nM)

molecule: COc1cccc2c1n(Cc1ccccc1C(F)(F)F)c(=O)n2[C@@H]1CCN(c2c(F)cccc2[N+](=O)[O-])C1
IC50 [nM]: 23

a: COc1cccc2c1n(Cc1ccccc1C(F)(F)F)c(=O)n2C1CCCN(C(=O)OC(C)(C)C)C1 (stereo not shown)
b: COc1cccc2c1n(Cc1ccccc1C(F)(F)F)c(=O)n2[C@@H]1CCN(c2c(F)cccc2C(C)(C)O)C1
c: COc1ncnc2c1n(Cc1ccccc1C(F)(F)F)c(=O)n2[C@@H]1CCN(c2c(F)cccc2C#N)C1
[in] List by increasing IC50. Give the labels in the order requested.
[out] b, a, c
(b: 70 nM, a: 205 nM, c: 863 nM)

----------
study system: C5AR1 (Homo sapiens, UniProt P21730)
experiment summary: hC5a DISCO IC50 assay (PathHunter beta-arrestin, antagonist mode)
conditions used: CHO-K1 C5AR1 beta-arrestin cell line; antagonist vs 1-10 nM C5a agonist; geometric mean values; read-out: C5aR IC50
Experimental: II. Biological Assays In Vitro Assay hC5a DISCO IC50 Assay 5 μl Antagonist at 6-fold end concentration or DMSO control is added to assay medium and subsequently 5 μl 1-10 nM C5a agonist at 6 fold end concentration. […] Plates are centrifuged for 1 min at 1000 rpm and incubated for 45 minutes at RT before being measured on a Fluostar Optima, BMG Labtech. IC50 values are calculated from a serial dilution range of antagonist using inhouse software and given in nmol/l. […]
pIC50: −log10 of the molar value.
readout name: pIC50

Use these answered entries as a reference point.
compound: COc1cccc2c1n(Cc1ccccc1C(F)(F)F)c(=O)n2[C@@H]1CCN(c2c(F)cccc2CN(CCO)CCO)C1 [Example 141]
reported value: 5.67

compound: COc1cccc2c1n(Cc1ccccc1C(F)(F)F)c(=O)n2[C@@H]1CCN(c2nncc(Cl)c2Cl)C1 [Example 157]
reported value: 6.20

I: COc1cccc2c1n(Cc1ccccc1C(F)(F)F)c(=O)n2[C@@H]1CCN(c2c(F)cccc2C(C)=O)C1 [Example 90]
II: Cc1cccc(F)c1N1CC[C@@H](n2c(=O)n(Cc3ccccc3C(F)(F)F)c3c(OC4CCNCC4)nccc32)C1 [Example 124]
III: COc1cccc2c1n(Cc1ccccc1C(F)(F)F)c(=O)n2[C@@H]1CCN(c2c(F)cccc2CN2CC(OC)C2)C1 [Example 143]
[in] List by increasing pIC50. Give the labels in the order requested.
[out] II, III, I
(II: 5.28, III: 6.97, I: 7.42)

----------
study system: C5AR1 (Homo sapiens)
experiment summary: hC5a DISCO IC50 assay (PathHunter beta-arrestin, antagonist mode)
conditions used: CHO-K1 C5AR1 beta-arrestin cell line; antagonist vs 1-10 nM C5a agonist; geometric mean values; read-out: C5aR IC50
readout name: IC50 (nM)

Use these answered entries as a reference point.
compound: COc1cccc2c1n(Cc1ccccc1C(F)(F)F)c(=O)n2[C@@H]1CCN(C(=O)OC2COC2)C1 [Example 72]
IC50 (nM): 397
//
compound: COc1nccc2c1n(Cc1ccccc1C(F)(F)F)c(=O)n2[C@@H]1CCN(c2c(C)cccc2F)C1 [Example 50]
IC50 (nM): 42
//
compound: COC1CN(c2nccc3c2n(Cc2ccccc2C(F)(F)F)c(=O)n3[C@@H]2CCN(c3c(C)cccc3F)C2)C1 [Example 205]
IC50 (nM): 45
//
compound: COc1cccc2c1n(Cc1c(F)cc(F)cc1OC(C)C)c(=O)n2[C@@H]1CCN(c2c(C)cccc2F)C1 [Example 220]
IC50 (nM): 109
//
compound: COc1cccc2c1n(Cc1ccccc1C(F)(F)F)c(=O)n2C1CCN(c2cc(C3CC3)nn2C)CC1 [Example 21]
IC50 (nM): 3440

P: COc1cccc2c1n(Cc1ccccc1C(F)(F)F)c(=O)n2[C@@H]1CCN(c2c(F)cccc2CN2CCOCC2)C1 [Example 115]
Q: COc1ccccc1Cn1c(=O)n([C@@H]2CCN(c3c(C)cccc3F)C2)c2cccc(OC)c21 [Example 110]
[in] Identify the entry with the larger IC50. Options: P and Q Response format: the label of the selected entry.
[out] P
